Target: T1, IL-2Rβ (UniProt P14784 27-240, limits assumed, biotinylated (site not stated))
T1 construct: also called CD122; IL-2Rbeta
T1 sequence (looked up): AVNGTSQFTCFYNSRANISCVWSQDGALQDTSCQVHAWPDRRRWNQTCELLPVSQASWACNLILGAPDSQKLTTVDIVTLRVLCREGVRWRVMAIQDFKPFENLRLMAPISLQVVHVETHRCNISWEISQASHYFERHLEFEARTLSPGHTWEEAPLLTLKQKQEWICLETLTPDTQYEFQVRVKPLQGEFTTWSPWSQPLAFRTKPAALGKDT
Assay: SPR Biacore T100, steady-state; biotinylated IL-2Rβ on chip
ENDPOINT_NAME: Kd (nM)
Could you give me the number in nM? Just the number is fine.

in silico designed IL-2 variant SEQ ID NO: 12, MSA fusion protein (ligand, not shown: large carriers; small tags and cut ends) APTSSSTKKTQLQLEHLLLDLQMILNMLNNYDNPKLTRMLTFKFYMPKKATELKHLQCLEEELKPLEEALNHAADDKDTIRDLISNINVIVLELKGSETTFMCEYADETATIIEFLNRWITFCQSIISTLT: 67.6
in silico designed IL-2 variant SEQ ID NO: 6, MSA fusion protein (ligand, not shown: large carriers; small tags and cut ends) APTSSSTKKTQLQLEHLLLDLQMILNMLNNYENPKLTRMLTFKFYMPKKATSLKHLQCLEEELKPLEEALNQAGDDPKTIRDLISNINVIVLELKGSETTFMCEYADETATIIEFLNRWITFCQSIISTLT: 398

Switching to the query record.
Look at this binder and give its reported Kd. in silico designed IL-2 variant SEQ ID NO: 13, MSA fusion protein (ligand, not shown: large carriers; small tags and cut ends) APTSSSTKKTQLQLEHLLLDLQMILNMLNNASNPSLTRMLTFKFYMPKKATELKHLQCLEEELKPLEEALNTAADDQDKIRDLISNINVIVLELKGSETTFMCEYADETATIIEFLNRWITFCQSIISTLT
207
